Test system: HCov OC43
ASSAY PROCEDURE: HCoV OC43 cytopathic effect (CPE) assay, CellTiter Glo
Assay type: cell-based, human coronavirus (HCov) OC43
CONDITIONS USED: read-out: OC43 IC50 (uM) MEDIAN; median; listed as 284 Isomer 2
MEASUREMENT TYPE: IC50

Problem: What reported IC50 corresponds to CC1(O)C[C@H](C(=O)N(c2ccc(C(C)(C)C)cc2)C(C(=O)NC2CCCCC2)c2cccnc2)N(C#N)C1 (single isomer, unassigned) [Compound 284 Isomer 2] on HCov OC43?
Solution: < 2 µM

* * *

SYSTEM TESTED: 229E Mpro (Human coronavirus 229E, UniProt P0C6X1)
Sequence (P0C6X1 2966-3267): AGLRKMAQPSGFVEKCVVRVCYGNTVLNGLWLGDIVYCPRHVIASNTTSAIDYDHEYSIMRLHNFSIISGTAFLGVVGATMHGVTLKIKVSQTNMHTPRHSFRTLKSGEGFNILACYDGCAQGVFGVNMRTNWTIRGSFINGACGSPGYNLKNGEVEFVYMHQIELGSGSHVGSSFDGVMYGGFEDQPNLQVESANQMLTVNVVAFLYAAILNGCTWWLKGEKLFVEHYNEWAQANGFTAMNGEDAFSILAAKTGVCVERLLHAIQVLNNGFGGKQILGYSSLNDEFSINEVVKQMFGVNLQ
ASSAY PROCEDURE: 229E Mpro enzymatic assay (standard methods, SARS-CoV2 Mpro assay given as exemplary)
Format: biochemical, human coronavirus (HCov) 229E
CONDITIONS USED: 229E Mpro EC50
pEC50: −log10 of the molar value.
MEASUREMENT TYPE: pEC50

Return reported pEC50 values for all items listed beneath this line.
1. COC1CN(C#N)C(C)(C(=O)N(c2ccc(S(F)(F)(F)(F)F)cc2)C(C(=O)NC2CCC(F)(F)CC2)c2cncc(F)c2)C1 (stereo not drawn) [Compound 1135b]
2. CN(C)CCCNC(=O)C(c1cccnc1)N(C(=O)[C@H]1CCCN1C#N)c1ccc(C(C)(C)C)cc1 (stereo partly drawn)
3. CO[C@@H]1C[C@H](C(=O)N(c2ccc(S(F)(F)(F)(F)F)cc2)C(C(=O)N2CCN(C(=O)OC(C)(C)C)C2)c2cccnc2)N(C#N)C1 (single isomer, unassigned) [1148d Isomer 1]
4. CC(C)(C)O[C@@H]1C[C@H](C(=O)N(c2ccc(C(C)(C)C)cc2)C(C(=O)NC2CCCCC2)c2cccnc2)N(C#N)C1 (single isomer, unassigned) [Compound 299 Isomer 2]
5. C[C@@H]1CC[C@H](C(=O)N(c2ccc(C(C)(C)C)cc2)C(C(=O)NC2CCCCC2)c2cccnc2)N1C#N (single isomer, unassigned) [Compound 244 Isomer 1]
6. CO[C@@H]1C[C@H](C(=O)N(c2ccc(S(F)(F)(F)(F)F)cc2)C(C(=O)N2CCCC3(COC3)C2)c2cccnc2)N(C#N)C1 (single isomer, unassigned)

Solution:
< 4.52
> 5.70
> 5.70
> 5.70
> 5.70
> 5.70

* * *

SYSTEM TESTED: 229E Mpro (Human coronavirus 229E)
ASSAY PROCEDURE: 229E Mpro enzymatic assay (standard methods, SARS-CoV2 Mpro assay given as exemplary)
Format: biochemical, human coronavirus (HCov) 229E
CONDITIONS USED: read-out: 229E Mpro EC50
pEC50: −log10 of the molar value.
Exercise: for every item that follows, state its recorded pEC50.

Return reported pEC50 values for all items listed beneath this line.
1. C[C@@H]1CN(C#N)[C@H]1C(=O)N(c1ccc(S(F)(F)(F)(F)F)cc1)C(C(=O)NC1CCC(F)(F)CC1)c1cncc(F)c1 (single isomer, unassigned) [1211 Isomer 2]
2. CO[C@@H]1C[C@H](C(=O)N(c2ccc(C(C)(C)C)cc2)C(C(=O)NC2CCCCC2)c2cccnc2)N(C#N)C1 (single isomer, unassigned) [Compound 292 Isomer 2]
3. NC(=O)c1nc(C2CC2)ccc1N(C(=O)c1cnc[nH]1)[C@@H](C(=O)NC1CCCCC1)c1cccnc1

Solution:
1: > 5.70; 2: > 5.70; 3: 5.00 to 5.70

Return reported pEC50 values for all items listed beneath this line.
1. CS(=O)(=O)[C@H]1C[C@H](C(=O)N(c2ccc(S(F)(F)(F)(F)F)cc2)C(C(=O)NC2CCC(F)(F)CC2)c2cncc(F)c2)N(C#N)C1 (single isomer, unassigned) [1105 Isomer 2]
2. CC(C)(C)c1ccc(N(C(=O)[C@H]2C[C@@](C)(O)CN2C#N)C(C(=O)NC2CCOCC2)c2cccnc2)cc1 (single isomer, unassigned) [1142 Isomer 2]

Solution:
1. > 5.70
2. > 5.70
